The reported measurements were obtained from patent US4588718A.

- experiment: physchem
- Format: physicochemical
- condition set: water, pH 4.8, water
metric name: solubility

# query: solubility of entry C[C@H]1C[C@@H]2[C@H]([C@@H](O)C[C@@]3(C)[C@H]2CC[C@]3(O)C(=O)COC(=O)CCCCCS(=O)(=O)CC(=O)O)[C@@]2(C)C=CC(=O)C=C12 [Example 1]
> 160 mg/mL
